Where these numbers come from: patent US20260193293A1

target.under.test: Sushi domains (SD1/2) protein of GABAB1a (GB1a)
Sequence (Q9Z0U4 29-158): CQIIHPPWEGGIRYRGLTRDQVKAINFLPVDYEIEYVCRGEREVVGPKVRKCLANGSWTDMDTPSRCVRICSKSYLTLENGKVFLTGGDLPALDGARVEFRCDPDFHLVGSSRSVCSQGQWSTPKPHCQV
method.description: FP competition vs TAMRA AJAP-1probe
Starred links: 1 amine or outer side, 2 acyl side, 3 side chain; linkers in the order of their positions; H or OH if unused. Non-standard residues stand in square brackets, D forms with d. Tyr(Et) = Oetyr, O-ethyl-L-tyrosine, CCOc1ccc(C[C@H](N[*:1])C(=O)[*:2])cc1; Phe(4-F) = N[C@@H](Cc1ccc(F)cc1)C(=O)O
observed.property: Ki (µM)

# example entries with known answers
Ac-ETEFIAWYGPADTD-NH2: 0.182
Ac-EDDS[Tyr(Et)]VWWGGADTD-NH2 (SMILES CCOc1ccc(C[C@H](NC(=O)[C@H](CO)NC(=O)[C@H](CC(=O)O)NC(=O)[C@H](CC(=O)O)NC(=O)[C@H](CCC(=O)O)NC(C)=O)C(=O)N[C@H](C(=O)N[C@@H](Cc2c[nH]c3ccccc23)C(=O)N[C@@H](Cc2c[nH]c3ccccc23)C(=O)NCC(=O)NCC(=O)N[C@@H](C)C(=O)N[C@@H](CC(=O)O)C(=O)N[C@H](C(=O)N[C@@H](CC(=O)O)C(N)=O)[C@@H](C)O)C(C)C)cc1) [EDDS(Oetyr)…]: 0.046

(P) Ac-ETEFIAWGPTGDRD-NH2
(Q) Ac-PFAIVWGPTVSRED-NH2
(R) Ac-EDDS[Phe(4-F)]VWWGGADTD-NH2 [EDDS(Fphe)…]
(S) Ac-EDDYIDWYDSDDD-NH2 [peptide 18]
QUERY: Exam item: list the entries in increasing order of Ki. Ranked list of labels, please, in the requested order.
RESULT: S, P, R, Q
(S: 0.0046 µM, P: 0.054 µM, R: 0.117 µM, Q: 0.792 µM)
